Test system: Alternaria solani
Experiment: Test D: tomato early blight, sprayed the day before inoculation, visual disease rating
Format: in vivo
Details: 40 ppm (marked *); 100 = 100% disease control
Marks after values point to notes of the source that are not given here.
Record form. Attribute: Test D disease control rating. Fill in for each entry.

Need Test D disease control rating of `Cc1ncc(-c2ccc(Cl)cc2)n1-c1c(F)cc([N+](=O)[O-])cc1F` , thanks.
0* %

Quick check: Test D disease control rating of `COc1cc(F)c(-c2c(Cl)nc(Br)n2-c2ccc(C)cc2F)c(F)c1` ?
99* %

Look up Test D disease control rating: `N#Cc1ccc(F)c(-c2c(Cl)nc(Cl)n2-c2ccc(Cl)nc2)c1F`
99* %

I have this molecule here, `COc1cc(F)c(-c2c(Cl)nc(Cl)n2-c2ccc(C)c(C#N)c2)c(F)c1` , and I need its recorded Test D disease control rating.
99* %
